tested on: 786-0 renal; experiment: NCI-60 one-dose screen, 48 h; settings: 10 µM unless noted
About 83,000 compounds went through this panel and 20% of them were active in at least one assay; those are over-represented in the sample as a whole. Calls of active or inactive are those of the source. Rule for the calls: active = growth percent below 10; inactive = the rest.
Entry note: the call must match one of T = active, F = inactive

// known answers, use as guide
>>> cat("COc1ccc(Cn2cc3c(c2-c2cc(OC)c(OC)c(OC)c2)CCCc2cnoc2-3)cc1N")
"F"
>>> cat("CCNC(=O)Oc1ccc(/C(=C(/C)c2ccc(Cl)cc2)c2ccc(OCCN(C)C)cc2)cc1")
"F"
>>> cat("CCOC(=O)/C(F)=C/C1CC1C1CCCCC1 (centres undefined)")
"F"
>>> cat("O=C(COc1cccc2cccnc12)Nc1ccc(C(=O)/C=C/c2ccc(Cl)cc2)cc1")
"F"

Tell me the assay call for `COc1ccc(/C=N/Nc2nc(N/N=C/c3ccc(OC)cc3O)nc(N3CCOCC3)n2)c(O)c1` please.
F

Assay outcome for `CC(C)=CCc1c(O)c(CC=C(C)C)c2c(c1O)C(=O)C1=C[C@@H]3C[C@H]4C(C)(C)O[C@@](C/C=C(\C)C(=O)O)(C3=O)[C@@]14O2` : what was it?
T

# outcome recorded in this test, key = `O=C1c2c(c3c4cc(Br)ccc4[nH]c3c3ccc4ccccc4c23)C(=O)N1CCN1CCCCC1`
T

Dear colleague, could you share the recorded outcome for CC1CCc2c(sc3nc(SCC(=O)N/N=C/c4cccc(O)c4O)n(-c4ccccc4)c(=O)c23)C1 (centres undefined) when you have a moment?
F

In this assay, the call recorded for `COc1ccc([C@@H]2[C@@H](O)C(=O)N2c2cc(OC)c(OC)c(OC)c2)cc1Cl` was what?
F

Which outcome was assigned to `COc1ccc([C@@H]2[C@@H](O)C(=O)N2c2cc(OC)c(OC)c(OC)c2)cc1` in this test?
F

So what was the verdict on `N#Cc1c(NC(=O)c2ccc(F)c(Cl)c2)sc2c1CCC(=O)C2` in this test?
F

Please let me know the test result on file for `COc1cc(/C=N/n2cnc3oc(-c4ccccc4)cc3c2=N)cc(CN2CCCCC2)c1O` .
T

Assay outcome for `O=S(=O)(NCCCNc1nccc(-n2cnc3ccccc32)n1)c1ccc(F)cc1` : what was it?
F

Assay outcome for `Nc1cc(F)ccc1NC(=O)c1ccc(NC(=O)C/C=C/c2cccnc2)cn1` : what was it?
F

Look up the recorded call for `Clc1ccc(-c2nc3ccc(/C(=N\N=C\c4ccccc4)c4ccccc4)cc3[nH]2)cc1` in this test.
F

Assay outcome for CC(C)(C)n1nnnc1C(Nc1nccs1)c1cc2cccc3ccc4cccc1c4c32 (centres undefined) : what was it?
F

====

The entries below come with measured growth values attached.
test system: HCC-2998 colon; experiment: NCI-60 one-dose screen, 48 h (100 = growth as untreated, 0 = no growth, -100 = all killed); conditions: 10 µM unless noted
This is part of a sample that, as a whole, favours compounds with a hit. Of some 83,000 tested, about 20% had one in any assay.
# unit: % | format: bare number

>>> reading("CN1C(=O)N(C)C2Nn3c(s/c(=C\\c4ccccn4)c3=O)=NC21 (configuration not stated)")
109
>>> reading("CS(=O)(=O)c1nccc(-c2c(-c3ccc(F)c(OCCc4ccccc4)c3)nc3sccn23)n1")
-46.4
>>> reading("C/C(=N\\NC(=O)CSc1nc2sc3c(c2c(=O)n1-c1ccccc1)CCC(C)C3)c1ccc(Cl)cc1 (configuration not stated)")
45.4
>>> reading("COc1cc(O)c2c(c1)[C@H]1O[C@@H]1C[C@H](O)[C@H](O)C(=O)/C=C\\C[C@H](C)OC2=O")
65.1
>>> reading("NC(=O)C(=Cc1ccc(Cl)cc1)C(N)=O")
85.7

Requested field: growth. Item: `CCOC(=O)Nc1ccc(-c2nc(-c3cccc(O)c3)c(-c3ccnc(Br)c3)[nH]2)cc1`
56.2

Give the measured growth of `C=CCn1c(SCC(=O)Nc2ccc(OC)cc2)nnc1-c1ccc(Cl)cc1` .
99.6

Entry under review: `CN1CCN(Cc2ccc(NC(=O)c3cncc(C#Cc4cnc5ccc(NC6CCOCC6)nn45)c3)cc2C(F)(F)F)CC1` . Reported growth?
-19.8

# get_value(readout='growth', item= `COc1cc([C@H]2OC[C@H]3[C@@H]2CO[C@@H]3c2ccc(O)c(OC)c2)ccc1O` )
96

Which growth is listed for `COc1ccc([C@@H]2[C@@H](O)C(=O)N2c2cc(OC)c(OC)c(OC)c2)cc1` ?
21.8

# growth lookup, item `Oc1ccccc1-c1nnc(SCc2ccc(O)c3ncccc23)o1`
46

Reported growth, compound `COc1ccccc1/C=C/C(=O)c1nnn(-c2ccc(C(=O)O)cc2)c1C` : ____
102

Request the reported growth associated with `CCOC(=O)c1nn(-c2ccc(C)cc2)c(=O)c2c(N)c(C#N)c(-c3ccc(OC)cc3)cc12`
110

Can you share its growth? I mean this compound: `Cc1ccc(NC(=O)c2cccc(CN3CCN(C)CC3)c2)cc1Oc1ccc(-c2[nH]nc3ncnc(N)c23)cc1`
99.4

Data request, read-out growth, for `O=C(CN1C(=O)CSC1=O)Nc1ccc(C(=O)/C=C/c2cc3ccccc3nc2Cl)cc1`
82.1

What value of growth has been reported for the following compound? `COc1cc(/C=C/C(=O)c2ccc(NC(=O)COc3cccc4cccnc34)cc2)cc(OC)c1OC`
112

====

system: NCI/ADR-RES ovarian; test: NCI-60 one-dose screen, 48 h; settings: 10 µM unless noted
Compounds without any hit were thinned out: in the full panel of roughly 83,000, 20% have a hit. Active and inactive are the calls of the source. The calls were made as follows: active = growth percent below 10; inactive = the rest.
Mark one answer only. Choices: active, inactive

Example entries begin here.
>>> cat("COc1ccc(N)cc1C(=O)Nc1cccc(-c2cc(=O)c3c(OC)c(OC)c(OC)cc3o2)c1")
"inactive"
>>> cat("C=CCn1c(SCC(=O)Nc2cccc(C(=O)/C=C/c3cccc([N+](=O)[O-])c3)c2)nc2ccccc2c1=O")
"inactive"
>>> cat("COc1ccc([C@H]2[C@H](O)C(=O)N2c2cc(OC)c(OC)c(OC)c2)cc1Cl")
"active"
>>> cat("CC1(C)CC[C@]2(C(=O)O)CC[C@]3(C)C(=CCC4[C@@]5(C)C[C@@H](O)[C@@H]6OC(c7cccc([N+](=O)[O-])c7)OC[C@@]6(C)C5CC[C@]43C)C2C1 (some centres not stated)")
"inactive"
>>> cat("O=S(=O)(NCCCNc1nccc(-n2cnc3ccccc32)n1)c1ccc(F)cc1")
"inactive"

Which result was noted for this compound in the test: `CCOP(=O)(OCC)OC[C@]12CCC(C)(C)C[C@H]1C1=CC[C@@H]3[C@@]4(C)C/C(=C\c5cccnc5)[C@H](OP(=O)(OCC)OCC)C(C)(C)[C@@H]4CC[C@@]3(C)[C@]1(C)CC2`
inactive

Dear colleague, could you share the recorded outcome for `COc1cc(/C=N/n2cnc3oc(-c4ccccc4)cc3c2=N)cc(CN2CCCCC2)c1O` when you have a moment?
active

How did this test come out for `COc1ccccc1/C=C/C(=O)c1nnn(-c2ccc(C(=O)O)cc2)c1C` ?
inactive

====

test system: BT-549 breast; experiment: NCI-60 one-dose screen, 48 h (100 = growth as untreated, 0 = no growth, -100 = all killed); details: 10 µM unless noted
Compounds without any hit were thinned out: in the full panel of roughly 83,000, 20% have a hit.
Decision: growth >= 80% yields Met, all other cases yield Not met.

Consider the following illustrative entries.
>>> cat("CCNCc1c(-c2cccc(OC(F)(F)F)c2)[nH]c2ccc(N3CCCC3)cc2c1=O")
"Not met"
>>> cat("COc1ccc([C@H]2[C@H](O)C(=O)N2c2cc(OC)c(OC)c(OC)c2)cc1O")
"Not met"
>>> cat("O=c1[nH]c(CNc2ccc(NCc3c(-c4ccccc4)no[n+]3[O-])cc2)nc2c1cnn2-c1ccccc1")
"Not met"
>>> cat("CC(C)(C)CC(C)(C)n1nnnc1C(Nc1ccccc1)c1cc2cccc3ccc4cccc1c4c32 (configuration not stated)")
"Met"
>>> cat("CS(=O)(=O)c1ccc2c(c1)c1c(n2C(=O)c2ccc(Cl)cc2)CCCC1")
"Not met"
>>> cat("CN1CCN(c2nc(-c3cnc4ccccc4n3)cc3ccccc23)CC1")
"Met"
>>> cat("CCCCCCNC(=O)Oc1ccc(/C(=C(/C)c2ccc(Cl)cc2)c2ccc(OCCN3CCCC3)cc2)cc1")
"Not met"
>>> cat("Cn1c2ccc(Br)cc2c2c3c(c4c5cc(F)ccc5oc4c21)C(=O)N(O)C3=O")
"Met"

Is reported growth greater than or equal to 80% here: `Nc1ccc(-c2nnc(SCc3ccc(O)c4ncccc34)n2-c2ccccc2)cc1`
Not met

Tell me whether growth is at least 80% here: `C=CCn1c(SCC(=O)Nc2cccc(C(=O)/C=C/c3ccc(C)cc3)c2)nc2ccccc2c1=O`
Met

Does the reported growth for `Oc1ccc(-c2nnc(SCc3ccc(O)c4ncccc34)o2)cc1` fall at or above the 80% mark?
Not met

Is the recorded value of growth equal to or greater than 80% for this compound? `Nc1c(C(=O)c2ccccc2)sc2nc(-c3cnccn3)cc(-c3cccs3)c12`
Met

Tell me whether growth is at least 80% here: `NCCN1CCN(c2nc(-c3ccccc3)nc3nc(-c4ccccc4)oc23)CC1`
Met

Hello, I need to know if `ClC(Cl)c1nc(-c2cccs2)n2nc(-c3ccccc3)cc2n1` has measured growth not below 80%. Thanks!
Met

Reported growth at or above 80%? `O=C1Nc2cc(OC(F)(F)F)ccc2Oc2ccc(-c3ccnc(N4CC[C@H](O)C4)c3)cc21`
Not met

Exam item: decide whether the reported growth for `C=CCn1c(SCC(=O)c2ccc(OC)cc2)nnc1-c1ccc(OC)cc1` is at least 80%.
Met

Determine whether measured growth meets or exceeds 80% for `COc1ccc2c(ccn2C(=O)N2c3ccccc3Sc3ccccc32)c1`
Not met

Decide: is the reported value of growth for C/C(=C(/C)C1CC1CCN(C(=O)c1ccc([N+](=O)[O-])cc1)S(=O)(=O)c1ccc(C)cc1)C1CCCCC1 (configuration not stated) equal to or greater than 80%?
Met

Does growth meet or surpass 80% for CCN1C(=O)N(CC)C2SC(N/N=C/c3ccc(F)cc3)=NC21 (configuration not stated) ?
Not met

Threshold query (growth >= 80%) on `CN1CCN(Cc2ccc(NC(=O)c3cncc(C#Cc4cnc5ccc(O[C@H]6CCOC6)nn45)c3)cc2C(F)(F)F)CC1`
Not met

# bool: growth of `CN(c1ccc(Br)cc1)S(=O)(=O)c1ccc(-c2cnc(C3CC3)o2)cc1` >= 80%
Not met

Kindly determine if growth recorded for `O=S(=O)(Nc1ccc(-c2nc(-c3cccc(O)c3)c(-c3ccnc(Br)c3)[nH]2)cc1)c1ccccc1` is above or exactly 80%.
Not met

hey, is growth for this one >= 80%? `Cc1occc1-c1nc2s/c(=C\c3cn(-c4ccccc4)nc3-c3ccccc3)c(=O)n2n1`
Met

Confirm if growth reported for the compound `C/C(=C(/c1ccc(O)cc1)c1ccc(OCCN2CCCC2)cc1)c1ccc(Cl)cc1` is 80% or above.
Met

Assess whether reported growth for `C#C[C@]1(O)CC[C@H]2[C@@H]3CC=C4c5sc(-c6ccccn6)nc5CC[C@]4(C)[C@H]3CC[C@@]21C` sits at 80% or higher.
Not met

Is reported growth greater than or equal to 80% here: `COc1ccc([C@H]2c3[nH]c4ccccc4c3C[C@@H]3C(=O)N(C4CCN(Cc5ccccc5)CC4)CC(=O)N23)c(OC)c1`
Met

Test whether the compound `CN(C)c1ccc(/C=N/Nc2nc(N/N=C/c3ccc(N(C)C)cc3)nc(N3CCOCC3)n2)cc1` records growth of 80% or higher.
Met

Say whether `C/C(=N/Nc1nc(N/N=C(/C)c2ccc([N+](=O)[O-])cc2)nc(N2CCOCC2)n1)c1ccc([N+](=O)[O-])cc1` shows growth of 80% or more.
Not met

Is the recorded value of growth equal to or greater than 80% for this compound? `O=C1/C(=C/c2ccc([N+](=O)[O-])cc2)SC(=Nc2ccccc2)N1Nc1ccccc1`
Met

Check the entry `COc1cc2c3c(n(CCCNCC4CC4)c(=O)c2cc1OC)-c1cc2c(cc1C3=O)OCO2` : does growth equal or exceed 80%?
Not met

# check: growth of `CN1CCN(c2nc(-c3csc(-c4ccncc4)n3)cc3ccccc23)CC1` is greater than or equal to 80%
Met

Values compiled from PubChem BioAssay (NCI).
